# hGluc-R EC50 (pM) listing for each entry below
target: human glucagon receptor (human, UniProt P47871); assay: cell-based or functional assay
Starred links: 1 amine or outer side, 2 acyl side, 3 side chain; linkers in the order of their positions; H or OH if unused. Non-standard residues stand in square brackets, D forms with d. Groups on a side chain read outwards from the residue. No end group written: not given here. *: point of attachment. C18 diacid = O=C(O)CCCCCCCCCCCCCCCCC(=O)*; γGlu = O=C(O)[C@H](CCC(=O)[*:2])N[*:1]; αMeF = C[C@](N)(Cc1ccccc1)C(=O)O; (PEG)2 = polyethylene glycol 2; AEEA = NCCOCCOCC(=O)O; Aib = CC(C)(N)C(=O)O
The answer is to be given in pM; state only the numeric part.

Before answering, review these 4 worked examples.
H[Aib]HGS[αMeF]TSDVSK[αMeF]LDSRAAKD[αMeF]IA[Aib]IANT-NH2 (not fully specified (residue 20)) [Peptide 228] : 177
H[Aib]HGS[αMeF]TSDVSK[αMeF]LDSRAAK([(PEG)2-(PEG)2-γGlu-γGlu-C18 diacid])D[αMeF]VQ[Aib]IANT-NH2 [Peptide 258] : 93.1
H[Aib]HGS[αMeF]TSDVSK[αMeF]LDSR[Aib]AK([AEEA-AEEA-γGlu-C18 diacid])DFVESIANT-NH2 [Peptide 251] : 248
H[Aib]QGTFTSDVSK[αMeF]LDSRAAK([AEEA-AEEA-γGlu-C18 diacid])DFVQ[Aib]LVAT-NH2 (not fully specified) [Peptide 315] : 5850

Ask: Quote hGluc-R EC50 (pM) reported for H[dS]QGS[αMeF]TSDVSK[αMeF]LDSRAAK([AEEA-AEEA-γGlu-C18 diacid])D[αMeF]VQ[Aib]IANT [Peptide 331] please.
Result: 66.6
